# Target Entity: Casein Kinase 1 (CK1 delta isoform) (Rattus norvegicus, UniProt Q06486)
# Construct: a truncation at amino acid 318 of the C-terminal portion of the rat CK1 delta isoform; purchased New England Biolabs 6030; host or cells: E. coli
# Sequence (Q06486 1-317): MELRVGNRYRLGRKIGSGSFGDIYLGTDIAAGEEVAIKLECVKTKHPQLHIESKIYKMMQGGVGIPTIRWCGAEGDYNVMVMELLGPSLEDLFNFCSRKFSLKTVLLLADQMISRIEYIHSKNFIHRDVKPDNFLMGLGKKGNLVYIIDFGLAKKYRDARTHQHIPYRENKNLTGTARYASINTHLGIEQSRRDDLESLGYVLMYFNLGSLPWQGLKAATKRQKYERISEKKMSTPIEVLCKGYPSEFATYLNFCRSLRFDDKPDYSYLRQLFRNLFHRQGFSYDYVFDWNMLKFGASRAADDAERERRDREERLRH
# Procedure Details: Kinase Selectivity Assay Casein Kinase 1
# Type: biochemical
# Assay Conditions: Tables 2a-2k, read-out: Caseine Kinase 1 IC50
// values below are reported IC50

Example entries begin here.
- Entry Smiles: "Cc1cc(C)c(C(=O)n2nc(Nc3ccc(-n4ccnc4)cc3)nc2N)s1"
  Target Entity: "Casein Kinase 1 (CK1 delta isoform) (Rattus norvegicus, UniProt Q06486)"
  IC50: "> 10 µM"
- Entry Smiles: "Cc1cc(C)c(C(=O)n2nc(Nc3ccc(S(=O)(=O)Nc4ccccn4)cc3)nc2N)s1"
  Target Entity: "Casein Kinase 1 (CK1 delta isoform) (Rattus norvegicus, UniProt Q06486)"
  IC50: "> 10 µM"
- Entry Smiles: "Cc1ccsc1C(=O)n1nc(Nc2ccc(N3CCCS3(=O)=O)cc2)nc1N"
  Target Entity: "Casein Kinase 1 (CK1 delta isoform) (Rattus norvegicus, UniProt Q06486)"
  IC50: "> 1 µM"

Shifting focus to the molecule that follows.
Exam item: Notebook entry, Casein Kinase 1 (CK1 delta isoform) (Rattus norvegicus, UniProt Q06486) assay: IC50 of Nc1nc(Nc2ccc(S(=O)(=O)Nc3ccccn3)cc2)nn1C(=O)c1c(F)cccc1F = ?
Marked response: > 100 µM

---

// values below are reported pIC50
# Target Entity: HER2 (human epidermal growth factor receptor-2) (Homo sapiens, UniProt P04626)
# Construct: begins at amino acid 676 followed by the remainder of the HER2 cytoplasmic domain; polyhistidine (N)
# Sequence (P04626 676-1255 limits assumed): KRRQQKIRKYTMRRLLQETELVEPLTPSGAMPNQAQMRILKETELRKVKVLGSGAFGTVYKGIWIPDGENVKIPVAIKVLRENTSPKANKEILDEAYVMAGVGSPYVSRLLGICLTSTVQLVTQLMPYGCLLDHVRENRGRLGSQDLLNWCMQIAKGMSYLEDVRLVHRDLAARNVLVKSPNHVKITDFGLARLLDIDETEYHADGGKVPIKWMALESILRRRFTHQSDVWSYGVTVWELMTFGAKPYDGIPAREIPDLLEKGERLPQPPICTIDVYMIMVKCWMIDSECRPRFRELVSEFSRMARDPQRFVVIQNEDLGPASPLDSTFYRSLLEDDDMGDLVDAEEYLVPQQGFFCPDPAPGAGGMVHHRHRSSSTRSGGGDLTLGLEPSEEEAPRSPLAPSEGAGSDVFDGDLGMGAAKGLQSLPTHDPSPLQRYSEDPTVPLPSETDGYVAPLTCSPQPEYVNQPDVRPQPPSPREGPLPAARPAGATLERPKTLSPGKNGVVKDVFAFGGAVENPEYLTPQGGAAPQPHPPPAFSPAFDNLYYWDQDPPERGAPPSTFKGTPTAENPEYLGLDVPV
# Procedure Details: Kinase Selectivity Assay HER2
# Type: biochemical
# Assay Conditions: Table 1; read-out: HER2 IC50
pIC50: −log10 of the molar value.

Example entries begin here.
- Entry Smiles: "Cc1cc(C)c(C(=O)n2nc(Nc3ccc(-n4cncn4)cc3)nc2N)s1"
  Target Entity: "HER2 (human epidermal growth factor receptor-2) (Homo sapiens, UniProt P04626)"
  pIC50: "~7.00"
- Entry Smiles: "Cc1ccc(F)c(C(=O)n2nc(Nc3ccc(S(=O)(=O)N(C)C)cc3)nc2N)c1F"
  Target Entity: "HER2 (human epidermal growth factor receptor-2) (Homo sapiens, UniProt P04626)"
  pIC50: "~6.00"
- Entry Smiles: "Nc1nc(Nc2ccc(S(N)(=O)=O)cc2)nn1C(=O)c1ccc(-c2ccccn2)s1"
  Target Entity: "HER2 (human epidermal growth factor receptor-2) (Homo sapiens, UniProt P04626)"
  pIC50: "< 6.00"
- Entry Smiles: "CCNS(=O)(=O)c1ccc(Nc2nc(N)n(C(=O)c3c(F)cccc3F)n2)cc1"
  Target Entity: "HER2 (human epidermal growth factor receptor-2) (Homo sapiens, UniProt P04626)"
  pIC50: "~6.00"

Exam item: Notebook entry, HER2 (human epidermal growth factor receptor-2) (Homo sapiens, UniProt P04626) assay: pIC50 of Nc1nc(Nc2ccc(S(=O)(=O)Nc3ccccn3)cc2)nn1C(=O)c1c(F)cccc1F = ?
Marked response: < 5.00

---

# Target Entity: Casein Kinase 2 (alpha and beta subunits) (Homo sapiens, UniProt P68400)
# Construct: purchased New England Biolabs 6010; host or cells: E. coli
# Sequence (P68400 whole entry): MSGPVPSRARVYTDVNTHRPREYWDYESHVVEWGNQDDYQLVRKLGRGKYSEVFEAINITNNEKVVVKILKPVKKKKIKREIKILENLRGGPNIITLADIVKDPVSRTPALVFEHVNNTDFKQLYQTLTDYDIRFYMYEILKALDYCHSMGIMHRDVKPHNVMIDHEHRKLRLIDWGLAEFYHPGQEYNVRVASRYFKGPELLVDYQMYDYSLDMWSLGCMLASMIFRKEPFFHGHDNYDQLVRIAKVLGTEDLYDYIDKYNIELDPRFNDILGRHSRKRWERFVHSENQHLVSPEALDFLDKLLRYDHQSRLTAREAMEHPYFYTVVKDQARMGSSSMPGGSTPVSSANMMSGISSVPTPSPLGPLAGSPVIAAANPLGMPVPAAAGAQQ
# Sequence (P67870 whole entry partner): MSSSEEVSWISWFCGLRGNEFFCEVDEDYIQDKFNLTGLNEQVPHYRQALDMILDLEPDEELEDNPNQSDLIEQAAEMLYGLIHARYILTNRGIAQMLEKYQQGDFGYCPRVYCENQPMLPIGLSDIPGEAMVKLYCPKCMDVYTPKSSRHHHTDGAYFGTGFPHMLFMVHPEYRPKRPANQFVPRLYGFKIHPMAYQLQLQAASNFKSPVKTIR
# Procedure Details: Kinase Selectivity Assay Casein Kinase 2
# Assay type: biochemical
# Assay Conditions: Kinase Selectivity, Tables 2a-2k; read-out: Caseine Kinase 2 IC50
# Description: Assays to test compound inhibition of other kinases were preformed using methods that measure the amount of phosphorylation of a biotinylated peptide substrate. Biotinylated peptide substrates were selected from the literature as appropriate for the enzyme being evaluated. […] The plate was read on a scintillation counter to determine ^33P-γ-ATP incorporated into the immobilized peptide. […] A maximum and minimum signal for the assay was determined on each plate. […]
pIC50: −log10 of the molar value.
Measured Property: pIC50

Example entries begin here.
- Entry Smiles: "Nc1nc(Nc2ccc(S(N)(=O)=O)cc2)nn1C(=O)C1CCCC1"
  pIC50: "< 4.00"
- Entry Smiles: "CN1CCN(c2ccc(Nc3nc(N)n(C(=O)c4c(F)cccc4F)n3)cc2)CC1"
  pIC50: "< 4.00"
- Entry Smiles: "Cc1ccc(F)c(C(=O)n2nc(N)nc2Nc2ccc(S(N)(=O)=O)cc2)c1F"
  pIC50: "< 4.00"
- Entry Smiles: "Nc1nc(Nc2ccc(N3CCCS3(=O)=O)cc2)nn1C(=O)c1c(F)cccc1F"
  pIC50: "< 4.00"

Shifting focus to the compound that follows.
Exam item: Reported pIC50, compound Cc1cc(C)c(C(=O)n2nc(Nc3ccc(S(=O)(=O)NCCN(C)C)cc3)nc2N)s1 : ____
Marked response: < 5.00
